systemUnderTest: T1, recombinant human IL-23R/Fc chimera (R&D Systems) (human, UniProt Q5VWK5 24-353)
T1 construct: bought; also called human IL-23R/Fc fusion protein; rhIL23RFc
T1 sequence (looked up): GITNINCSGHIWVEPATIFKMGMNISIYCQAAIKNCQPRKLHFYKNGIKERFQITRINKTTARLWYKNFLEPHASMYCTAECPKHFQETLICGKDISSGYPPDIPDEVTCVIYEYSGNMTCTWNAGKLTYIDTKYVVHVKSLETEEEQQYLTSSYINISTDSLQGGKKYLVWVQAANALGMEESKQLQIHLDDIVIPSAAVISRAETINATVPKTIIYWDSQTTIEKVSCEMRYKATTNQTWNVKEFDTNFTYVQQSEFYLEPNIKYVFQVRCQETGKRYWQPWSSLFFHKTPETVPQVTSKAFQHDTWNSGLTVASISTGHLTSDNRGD
assayProtocol: SPR (Biacore), captured IL-23R/Fc, ATRIMER
endpointName: koff (s⁻¹)
Number in s⁻¹, nothing else.

Consider the binder shown here: 101-51-1A7 ATRIMER (designed binder) EPPTQKPKKIVNAKKDVVNTKMFEELKSRLDTLAQEVALLKEQQALQTVCLKGTKVHMKCFLAFTQTKTFHEASEDCISRGGTLSTPQTGSENDALYEYLRQSVGNEAEIWLGLNGSALTNTWVDMTGARIAYKNWERPPLYQPGGGWGVFGENCAVLSGAANGKWFDKRCRDQLPYICQFGIV What is its recorded koff? 0.000187
